# systemTested: T1, human EL (vascular endothelial lipase) (human, UniProt Q9Y5X9 21-500)
# T1 sequence: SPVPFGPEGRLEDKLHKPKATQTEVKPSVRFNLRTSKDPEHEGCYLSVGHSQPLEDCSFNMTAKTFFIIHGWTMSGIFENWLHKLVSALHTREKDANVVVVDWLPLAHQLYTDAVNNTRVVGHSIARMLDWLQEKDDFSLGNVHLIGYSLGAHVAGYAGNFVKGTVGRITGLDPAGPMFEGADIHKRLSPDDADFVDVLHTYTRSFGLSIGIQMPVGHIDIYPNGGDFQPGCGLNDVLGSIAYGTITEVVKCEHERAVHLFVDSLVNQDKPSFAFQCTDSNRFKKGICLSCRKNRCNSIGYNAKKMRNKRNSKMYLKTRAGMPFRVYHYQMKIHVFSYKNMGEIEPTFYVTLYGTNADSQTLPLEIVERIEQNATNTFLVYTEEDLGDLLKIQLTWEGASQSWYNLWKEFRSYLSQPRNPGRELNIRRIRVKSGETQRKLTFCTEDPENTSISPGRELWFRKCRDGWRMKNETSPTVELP
# assay: cell-based or functional assay
# Neutralizing activity IC50 >= 4 nM gives TRUE, anything below gives FALSE

binder	classification
h53A11-S1 (antibody, V domains shown) VH: QVQLVQSGAEVKKPGASVKVSCKASGYTFTDYTMHWVRQAPGQRLEWMGGINPYYGGTTYNEKFKDRVTITRDTSASTAYMELSSLRSEDTAVYYCAKGDYYGGSYNYWGQGTTVTVSS VL: EIVMTQSLATLSVSPGERATLSCRASQDISNSLHWYQQKPGQAPRLLIKYASQSISGIPARFSGSGSGTEFTLTISSLQSEDFAVYYCQQSNSWPYTFGQGTKLEIK	TRUE
h23H8-S2 (antibody, V domains shown) VH: QVQLVQSGAEVKKPGASVKVSCKASGYTFTDNTIHWVRQAPGQGLEWMGHINPYYGGTNNNEKFKDRVTMTRDTSISTAYMELSRLRSDDTAVYYCARKGIYYSSPFDYWGQGTTVTVSS VL: DIQMTQSPSSLSASVGDRVTITCRASQDINNYLNWYQQKPGKAPKLLISYTSKLHSGVPSRFSGSGSGTDFTLTISSLQREDFATYYCQQGNTLPFTFGQGTKLEIK	TRUE
h13B3-S1 (antibody, V domains shown) VH: QVQLVQSGAEVKKPGASVKVSCKASGYTFTEYTMHWVRQAPGQGLEWMGSINPYYGGTSYNEKFKDRVTMTRDTSTSTVYMELSSLRSEDTAVYYCARYGNYVGYFDYWGQGTTVTVSS VL: EIVLTQSPGTLSLSPGERATLSCRASSSVHYMYWYQQKPGQAPRLLIYYTSNLAPGIPDRFSGSGSGTDFTLTISRLEPEDFAVYYCQQFTSSPYTFGGGTKVEIK	FALSE

Please find the next binder below.
Assess whether reported Neutralizing activity IC50 for h16B3-S2 (antibody, V domains shown, humanized) VH: EVQLVESGGGLVQPGGSLRLSCAASGFTFSGYTMSWVRQAPGKGLEWVSEISFARDRAFYPDTVKGRFTISRDNSKNTLYLQMNSLRAEDTAVYYCARLGGRNHDYWYFDVWGQGTTVTVSS VL: DIVMTQSPDSLAVSLGERATINCRASESVEYYGTSLMQWYQQKPGQPPKLLIYAASNVESGVPDRFSGSGSGTDFTLTISSLQAEDVAVYYCQQSWKVPFTFGQGTKLEIK sits at 4 nM or higher.
TRUE
